These measurements were taken from patent US20030068675.

Molecular target: T1, ZFP SBS#671 (synthetic)
T1 chain: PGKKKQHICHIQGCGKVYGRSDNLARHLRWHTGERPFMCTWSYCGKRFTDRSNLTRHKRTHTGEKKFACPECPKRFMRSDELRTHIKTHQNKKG
Assay: EMSA
Details: tags: MBP fusion
reported.property: Kd (nM)
The figure you give is taken to be in nM; do not add the unit.

Challenge: Quote Kd reported for TCGGACGAGT (dsDNA) DNA 1: TCGGACGAGT DNA 2: ACTCGTCCGA please.
Response given: 64
